- TARGET_OR_TEST_SYSTEM: human P2X3 receptor (Homo sapiens (Human))
- Sequence (P56373 whole entry): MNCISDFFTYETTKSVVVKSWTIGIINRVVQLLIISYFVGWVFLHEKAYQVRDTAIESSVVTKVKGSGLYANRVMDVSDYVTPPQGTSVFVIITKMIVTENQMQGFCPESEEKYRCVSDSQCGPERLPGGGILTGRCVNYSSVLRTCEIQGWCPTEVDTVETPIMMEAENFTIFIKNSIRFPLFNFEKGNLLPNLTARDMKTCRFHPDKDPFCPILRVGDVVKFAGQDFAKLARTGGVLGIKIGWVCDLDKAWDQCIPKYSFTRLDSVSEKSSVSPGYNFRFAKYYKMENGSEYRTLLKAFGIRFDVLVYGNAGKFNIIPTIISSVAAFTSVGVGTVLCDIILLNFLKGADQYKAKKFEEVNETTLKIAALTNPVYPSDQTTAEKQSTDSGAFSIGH
- TEST: Evaluation of human P2X3 receptor inhibitory activity (Fluo-3 calcium fluorescence, FDSS 3000, ATP stimulation)
- Type: cell-based
- STUDY_CONDITIONS: human P2X3 receptor, Test Example 1
So basically, if IC50 comes in under 20 nM it's yes, and if it's 20 nM or more it's no.

See these solved cases before continuing.
Q) Field: below-cutoff. Rule: recorded IC50 strictly less than 20 nM. Subject: CCn1c(=O)[nH]/c(=N\c2ccc(Sc3nc[nH]n3)cc2)n(Cc2ccc(Cl)cc2)c1=O [Compound I-2598]
A) no

Q) Field: below-cutoff. Rule: recorded IC50 strictly less than 20 nM. Subject: CCn1c(=O)[nH]/c(=N\c2ccc(Oc3nc(C(N)=O)cs3)cc2)n(Cc2ccc(Cl)cc2)c1=O [Compound I-2608]
A) yes

Q) Field: below-cutoff. Rule: recorded IC50 strictly less than 20 nM. Subject: CCn1c(=O)[nH]/c(=N\c2ccc(Oc3ccc(C(N)=O)cn3)cc2)n(Cc2ccc(C)cc2)c1=O [Compound I-2398]
A) yes

Q) Field: below-cutoff. Rule: recorded IC50 strictly less than 20 nM. Subject: CCCOc1ccc(/N=c2\[nH]c(=O)n([C@H](C)CC(=O)OC)c(=O)n2Cc2ccc(C)cc2)cc1Cl [Compound I-0877]
A) no

Next:
Q) Field: below-cutoff. Rule: recorded IC50 strictly less than 20 nM. Subject: CCOC(=O)C(F)(F)Cn1c(=O)[nH]/c(=N\c2ccc(OCC)c(Cl)c2)n(Cc2ccc(C)cc2)c1=O [Compound I-0856]
A) yes

Q) Field: below-cutoff. Rule: recorded IC50 strictly less than 20 nM. Subject: Cc1cc(/N=c2\[nH]c(=O)n([C@H](C)[C@H](C)C(=O)O)c(=O)n2Cc2ccc(Cl)cc2)ccc1OC(C)C [Compound I-0825]
A) no

Q) Field: below-cutoff. Rule: recorded IC50 strictly less than 20 nM. Subject: CCn1c(=O)[nH]/c(=N\c2ccc(Oc3ccnc(C(=O)OC)c3)cc2)n(Cc2ccc(F)cc2)c1=O [Compound I-2359]
A) no

----------
- TARGET_OR_TEST_SYSTEM: UniProt:P56373
- TEST: Evaluation of human P2X3 receptor inhibitory activity (Fluo-3 calcium fluorescence, FDSS 3000, ATP stimulation);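 further: stimulus was 50 nM ATP with fluorescence followed for 3 min, and the response per well was peak post-ATP fluorescence divided by the reading at measurement start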
- Type: cell-based
- STUDY_CONDITIONS: C6BU-1 cells stably expressing human P2X3 receptor, Fluo-3 fluorescence, FDSS 3000
What pIC50 was measured for each of the following?
Numbers only, as −log10 of the molar value.

Entry CCc1cc2cc(/N=c3\[nH]c(=O)n(C[C@H](C)C(=O)O)c(=O)n3Cc3ccc(Cl)cc3)ccc2o1 under UniProt:P56373 had pIC50 of 7.74

For the 6 compounds below, give their pIC50 values.
1. COC(=O)[C@@H](C)Cn1c(=O)[nH]/c(=N\c2ccc(Oc3ccccc3)cc2)n(Cc2ccc(Cl)cc2)c1=O
2. Cc1ccc(Cn2c(=O)n(C[C@H](C)C(=O)O)c(=O)[nH]/c2=N\c2ccc(C3=CCCCC3)cc2)cc1
3. COC(=O)[C@H](C)[C@H](C)n1c(=O)[nH]/c(=N\c2ccc(OC(C)C)c(C)c2)n(Cc2ccc(C)cc2)c1=O
4. COC(=O)[C@@H](C)Cn1c(=O)[nH]/c(=N\c2ccc(OC3CCOCC3)nc2)n(Cc2ccc(C)cc2)c1=O
5. CC(C)Oc1ccc(/N=c2\[nH]c(=O)n(C[C@H](C)C(=O)O)c(=O)n2Cc2ccc(I)cc2)cc1
6. CCOc1ccc(/N=c2\[nH]c(=O)n(C[C@@H](C)C(=O)OC)c(=O)n2Cc2ccc(C)cc2)cc1Cl

A)
7.17
6.79
7.68
6.41
7.16
8.15
